Cited source for all entries: patent US20200031811A1

tested.on: MNK1 (Homo sapiens)
Construct: purchased Life Technologies or Carna Biosciences PV6023 or 02-145; host or cells: baculovirus infected insect cells
method: MNK inhibition assay (Z-Lyte kinase assay, Ser/Thr 7 peptide)
Assay type: biochemical
reported.conditions: at 1 μM; read-out: Inhibition of MNK1 activity at indicated concentration
parameter.measured: inhibition at 1 µM (%)
Your answer should be a plain number; it is taken to be in %.

Query block: Kindly indicate its recorded inhibition at 1 µM. Item: Cn1nccc1Nc1ccc2cncc(-c3cc4ccccc4o3)c2c1
Result block: 40

Query block: Name the recorded inhibition at 1 µM of the item NC1CCN(Cc2ccc3cncc(-c4ccc(C(=O)O)cc4)c3c2)CC1 in your answer.
Result block: 43

Now for a further compound.
Query block: Please report the measured inhibition at 1 µM for NC1CCN(Cc2ccc3cncc(-c4cccc(C(=O)O)c4)c3c2)CC1
Result block: 34

====

tested.on: MNK1 (Homo sapiens, UniProt Q9BUB5)
Sequence (Q9BUB5 whole entry): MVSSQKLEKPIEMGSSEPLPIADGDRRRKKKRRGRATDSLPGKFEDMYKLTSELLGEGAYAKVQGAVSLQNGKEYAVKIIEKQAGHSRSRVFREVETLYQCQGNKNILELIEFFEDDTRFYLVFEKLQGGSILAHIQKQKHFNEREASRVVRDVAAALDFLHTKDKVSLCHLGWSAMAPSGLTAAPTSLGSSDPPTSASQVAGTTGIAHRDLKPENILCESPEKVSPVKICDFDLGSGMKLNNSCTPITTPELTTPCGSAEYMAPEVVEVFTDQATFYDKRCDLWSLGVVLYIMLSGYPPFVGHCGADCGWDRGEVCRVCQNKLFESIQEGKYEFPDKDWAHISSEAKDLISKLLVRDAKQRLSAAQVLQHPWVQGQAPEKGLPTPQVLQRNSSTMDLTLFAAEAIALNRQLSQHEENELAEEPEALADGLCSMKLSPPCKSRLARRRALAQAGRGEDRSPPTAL
method: MNK inhibition assay (Z-Lyte kinase assay, Ser/Thr 7 peptide)
reported.conditions: recombinant GST-MNK1, 3 hours at 31° C.
parameter.measured: pIC50
# log scale: pIC50 equals minus log10 of the concentration in mol/L

Illustrative cases are given below, each with its answer.
Query block: Give measured pIC50 for NC1CCN(Cc2ccc3cncc(-c4ccccc4)c3c2)CC1 [Example 7] (MNK1 (Homo sapiens, UniProt Q9BUB5)).
Result block: 6.13

Query block: // fetch pIC50; item: N[C@H]1CC[C@H](Nc2ccc3cncc(-c4cc5ccccc5o4)c3n2)CC1 [Example 304] ; system: MNK1 (Homo sapiens, UniProt Q9BUB5)
Result block: 8.00

Query block: Give MNK1 (Homo sapiens, UniProt Q9BUB5) pIC50 for the following compound: Nc1ncc(-c2cc3ccccc3o2)c2cc(CN3CCC(N)CC3)cc(Cl)c12 [Example 256]
Result block: 6.67

Query block: Quote MNK1 (Homo sapiens, UniProt Q9BUB5) pIC50 for entry NC1CCN(Cc2ccc3nncc(-c4cc5ccccc5o4)c3c2)CC1 [Example 144] .
Result block: 5.72

Query block: Specify the recorded pIC50 for NCCCNC(=O)c1ccc2cncc(-c3cc4ccccc4o3)c2n1 [Example 103] , system: MNK1 (Homo sapiens, UniProt Q9BUB5).
Result block: 7.06

Query block: Report pIC50 from MNK1 (Homo sapiens, UniProt Q9BUB5) testing of c1ccc2oc(-c3cncc4ccc(NCC5CCNCC5)cc34)cc2c1 [Example 213]
Result block: 6.95

---
Query block: # return pIC50 for NC1CCN(Cc2cc(Cl)c3cncc(-c4ccc(F)c(F)c4)c3c2)CC1 [Example 238] , test system: MNK1 (Homo sapiens, UniProt Q9BUB5)
Result block: 6.63

Query block: Look up and report measured pIC50 (MNK1 (Homo sapiens, UniProt Q9BUB5)) for the following compound: N[C@H]1CC[C@H](Nc2cc3c(-c4cc5ccccc5o4)cncc3cc2Cl)CC1 [Example 140]
Result block: 8.00

Query block: Quote pIC50 with test system MNK1 (Homo sapiens, UniProt Q9BUB5) for COc1cc(CN2CCC(N)CC2)cc2c(-c3cc4ccccc4o3)cncc12 [Example 242]
Result block: 6.79

Query block: Lab note: MNK1 (Homo sapiens, UniProt Q9BUB5) assay, enter pIC50 for NC1CCN(Cc2ccc3cncc(-c4ccc(Cl)cc4)c3c2)CC1 [Example 9] here
Result block: 6.59

Query block: Lab note: record pIC50 of c1ccc2oc(-c3cncc4ccc(Cn5ccc6cnccc65)cc34)cc2c1 [Example 189] tested on MNK1 (Homo sapiens, UniProt Q9BUB5).
Result block: 7.96

Query block: Provide MNK1 (Homo sapiens, UniProt Q9BUB5) pIC50 reading for CN(Cc1ccc2cncc(-c3cc4ccccc4o3)c2c1)c1ccncc1 [Example 67] .
Result block: 7.24

Query block: Find pIC50 for NC1CCN(Cc2ccc3nncc(-c4ccc(O)cc4)c3c2)CC1 [Example 86] on MNK1 (Homo sapiens, UniProt Q9BUB5) and write it down.
Result block: 6.76

Query block: Tell me its pIC50 on MNK1 (Homo sapiens, UniProt Q9BUB5): Nc1ncc(-c2ccc(Cl)c(Cl)c2)c2cc(CN3CCC(N)CC3)ccc12 [Example 217]
Result block: 5.52

Query block: Under MNK1 (Homo sapiens, UniProt Q9BUB5), report pIC50 for Nc1ncc(-c2cc3ccccc3o2)c2cc(CNc3ccncc3)ccc12 [Example 151]
Result block: 7.96

====

# pIC50 values compiled below
tested.on: MNK1 (Homo sapiens)
method: MNK inhibition assay (Z-Lyte kinase assay, Ser/Thr 7 peptide)
reported.conditions: recombinant GST-MNK1, 3 hours at 31° C.
Please express pIC50 as -log10 of the molar concentration.

Query block: Recall and state the measured pIC50 for NC1CCN(Cc2ccc3cncc(-c4cc5cccnc5o4)c3c2)CC1 .
Result block: 6.12

Query block: Give pIC50 for the following compound: NC1CCN(Cc2ccc3cncc(-c4ccc(Cl)s4)c3c2)CC1
Result block: 6.72

Query block: Please look at this compound and report its pIC50: NC1CCN(Cc2ccc3cncc(-c4nc5ccccc5o4)c3c2)CC1
Result block: 6.32

Query block: Annotate the compound NCCCOCc1ccc2cncc(-c3ccc(NC(=O)Nc4ccccc4)cc3)c2c1 with its measured pIC50.
Result block: 5.46

Query block: Tell me measured pIC50 for COc1cc(CN2CCC(N)CC2)cc2c(-c3ccco3)cncc12 please.
Result block: 6.94

Further cases:
Query block: Provide measured pIC50 value, entry: N[C@H]1CC[C@H](Nc2ccc3cncc(-c4ccccc4)c3n2)CC1
Result block: 7.51

Query block: Provide pIC50 value for the following compound: NC1CCN(Cc2cc3c(-c4cc5ccccc5o4)cncc3cc2F)CC1
Result block: 7.36

Query block: Dear colleague, please send me the reported pIC50 for c1ccc2oc(-c3cncc4ccc(NCc5ccncc5)cc34)cc2c1 when you can.
Result block: 7.04
